molecular target: TNF-α (Homo sapiens); assay: Kinetic fits of SPR sensorgrams; assay type: binding; details: from koff and kon of SPR kinetic fits; read-out: Kd resulting from rate constants
Where no end group is shown, it is not given here.
value.type: pKd
Hey, just a heads up that pKd is the negative log base 10 of the concentration in molar.

**Query** Requested field: pKd. Item: WGPSYAFKIYRFHQQSSGSC [TNF4-opt]
**Result** 6.89

---

target: TNF-α (Homo sapiens, UniProt P01375); assay: Equilibrium SPR affinity of peptides for captured TNF-α; type: binding; settings: equilibrium SPR binding responses, TNF-α
Sequence (P01375 77-233 limits assumed): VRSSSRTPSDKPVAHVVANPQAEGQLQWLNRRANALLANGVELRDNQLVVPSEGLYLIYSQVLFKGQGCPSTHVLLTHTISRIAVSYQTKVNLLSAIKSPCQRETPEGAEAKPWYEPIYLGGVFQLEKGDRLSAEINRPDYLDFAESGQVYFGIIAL
Where no end group is shown, it is not given here.
Hi there, I'd appreciate the recorded Kd for every entry that follows.
# number only, unit nM dropped from output

**Query** Item WGPSYAFKIYRFHQQSSGSC [TNF4-opt] with TNF-α (Homo sapiens, UniProt P01375) - Kd?
**Result** 90

**Query** Recall the recorded Kd for WGPSDAFKITRFHQQSSGSC [Peptide Y1W] with TNF-α (Homo sapiens, UniProt P01375) and state it.
**Result** 380

**Query** Form: Entry = WGPSYAFKITRFHQQSSGSC [Y1W+D5Y] | System = TNF-α (Homo sapiens, UniProt P01375) | Kd = ____
**Result** 200

**Query** Value wanted: Kd (TNF-α (Homo sapiens, UniProt P01375)) of entry YGPSYAFKITRFHQQSSGSC [Peptide D5Y]
**Result** 280

**Query** Query for TNF-α (Homo sapiens, UniProt P01375): what Kd does the record show for YGPSDAFKIYRFHQQSSGSC [Peptide T10Y] ?
**Result** 310

---

Record form. Attribute: Kd. Fill in for each entry.
biological target: transferrin (Homo sapiens); assay: Equilibrium SPR affinity of TRF26 peptides for immobilized transferrin; assay type: binding; conditions: peptide concentration series
Sequence (P02787 20-698, species assumed): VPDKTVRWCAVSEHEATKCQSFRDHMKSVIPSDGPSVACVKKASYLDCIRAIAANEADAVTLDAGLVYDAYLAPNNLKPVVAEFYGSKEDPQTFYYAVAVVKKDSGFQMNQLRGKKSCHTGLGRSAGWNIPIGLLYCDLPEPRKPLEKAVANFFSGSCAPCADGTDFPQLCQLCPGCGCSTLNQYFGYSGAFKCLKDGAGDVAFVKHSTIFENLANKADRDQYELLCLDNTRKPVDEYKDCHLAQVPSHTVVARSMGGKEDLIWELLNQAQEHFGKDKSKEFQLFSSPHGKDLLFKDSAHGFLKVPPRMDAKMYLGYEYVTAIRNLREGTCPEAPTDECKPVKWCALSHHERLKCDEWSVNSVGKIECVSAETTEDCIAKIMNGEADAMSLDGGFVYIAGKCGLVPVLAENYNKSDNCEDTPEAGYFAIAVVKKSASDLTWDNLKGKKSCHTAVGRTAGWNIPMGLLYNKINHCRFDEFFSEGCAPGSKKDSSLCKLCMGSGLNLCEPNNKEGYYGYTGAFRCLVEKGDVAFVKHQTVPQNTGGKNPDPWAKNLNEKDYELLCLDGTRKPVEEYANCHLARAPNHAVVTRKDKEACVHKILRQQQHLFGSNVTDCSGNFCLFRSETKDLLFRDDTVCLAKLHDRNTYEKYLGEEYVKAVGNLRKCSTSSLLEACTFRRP
Where no end group is shown, it is not given here.
Write down the numeric answer in µM and omit the unit.

**Query** Returns the measured Kd for the input sequence. Input: AHKVVYQRQIRHAYNRYGSC [Peptide P6Y]
**Result** 8.6

**Query** Need Kd of AHKVVYQRQIRFAYNRYGSC [P6Y+H12F] , thanks.
**Result** 0.5

**Query** Consider the sequence shown here: AHKVVPQRQIRFAYNRYGSC [Peptide H12F] What is its recorded Kd?
**Result** 9.7

**Query** Return reported Kd; argument: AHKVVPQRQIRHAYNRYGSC [TRF26]
**Result** 85

---

biological target: TNF-α (Homo sapiens, UniProt P01375); test: Equilibrium SPR affinity of peptides for captured TNF-α; type: binding; conditions: equilibrium SPR, TNF-α captured on chip, peptide concentration series; mean ± standard error of several replicates; SEM
Where no end group is shown, it is not given here.
Field: Kd. Provide a value for each of the sequences that follow.
Return type: number; implicit unit µM.

**Query** Consider the sequence shown here: FERDYLMMPWSFLQSRQGSC [Peptide P5Y] What is its recorded Kd?
**Result** 58

**Query** Recorded Kd of FERYPLKMPWSFLQSRQGSC [D4Y+M7K] , please.
**Result** 17

**Query** What value of Kd has been reported for the following sequence? FERDPLMMPWSFLQSRQGSC [TNF1]
**Result** 160

**Query** Suppose we examine the sequence YGPSDAFKITRFHQQSSGSC [TNF4] ; what Kd value has been reported?
**Result** 23

**Query** Would you mind telling me what Kd value was observed for FERDPLKMPWSFLQSRQGSC [Peptide M7K] ?
**Result** 57

**Query** Query: Kd; subject: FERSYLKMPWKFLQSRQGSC [TNF1-opt]
**Result** 1.6

**Query** Please look up its Kd: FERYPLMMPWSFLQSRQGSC [Peptide D4Y]
**Result** 44

src = paper PMC2978705
